Here the recorded Ki is given for each entry.
SUBJECT_OF_TEST: human Na,K-ATPase α2β3FXYD1 (Homo sapiens (Human), UniProt P50993+P54709)
EXPERIMENTAL_PROTOCOL: biochemical
Type: biochemical
PARTICULARS: read-out: Ki in nM ± SEM α2β3
Could you give me the number in nM? Just the number is fine.

CC1CN(C2CC2)CCC(O[C@@H]2[C@H](C)O[C@@H](O[C@@H]3[C@H](C)O[C@@H](O[C@H]4CC[C@@]5(C)C(CCC6C5C[C@H](O)[C@]5(C)[C@@H](C7=CC(=O)OC7)CC[C@]65O)C4)C[C@@H]3O)C[C@@H]2O)O1 (some centres unmarked)    8.1

Shift focus to the following entry.
Task: Form entry - test system: human Na,K-ATPase α2β3FXYD1 (Homo sapiens (Human), UniProt P50993+P54709); read-out: Ki; molecule: CC1CN(C(C)C)CCC(O[C@@H]2[C@H](C)O[C@@H](O[C@@H]3[C@H](C)O[C@@H](O[C@H]4CC[C@@]5(C)C(CCC6C5C[C@H](O)[C@]5(C)[C@@H](C7=CC(=O)OC7)CC[C@]65O)C4)C[C@@H]3O)C[C@@H]2O)O1 (some centres unmarked)
Result: 10.3

* * *

SUBJECT_OF_TEST: human Na,K-ATPase α2β3FXYD1 (Homo sapiens (Human), UniProt P50993+P54709)
EXPERIMENTAL_PROTOCOL: biochemical
Assay type: biochemical
PARTICULARS: read-out: apparent vanadate affinity α2β3
QUANTITY: Ki (nM)
Could you give me the number in nM? Just the number is fine.

Task: Would you mind telling me what Ki value was observed for [O]=[V]([OH])([OH])[OH] [Vanadate, vanadate, reference compound] ?
Result: 1900

* * *

System: human Na,K-ATPase α2β1FXYD1
Format: biochemical
QUANTITY: Selectivity Ki ratio α1β1/α2β1
# print the numeric value only

CCN1CCC(O[C@@H]2[C@H](C)O[C@@H](O[C@@H]3[C@H](C)O[C@@H](O[C@H]4CC[C@@]5(C)C(CCC6C5C[C@H](O)[C@]5(C)[C@@H](C7=CC(=O)OC7)CC[C@]65O)C4)C[C@@H]3O)C[C@@H]2O)OC(C)C1 (stereo partly drawn)    5.9

Task: Would you mind telling me what Selectivity Ki ratio α1β1/α2β1 value was observed for CC1CN(C2CCCCC2)CCC(O[C@@H]2C(C)O[C@@H](OC3C(C)OC(O[C@H]4CC[C@@]5(C)C(CCC6C5CC(O)[C@]5(C)[C@@H](C7=CC(=O)OC7)CC[C@]65O)C4)C[C@@H]3O)C[C@@H]2O)O1 (stereo in doubt) ?
Result: 4.6

Task: Would you mind telling me what Selectivity Ki ratio α1β1/α2β1 value was observed for CC1CN(CCC2CC2)CCC(O[C@@H]2[C@H](C)O[C@@H](O[C@@H]3[C@H](C)O[C@@H](O[C@H]4CC[C@@]5(C)C(CCC6C5C[C@H](O)[C@]5(C)[C@@H](C7=CC(=O)OC7)CC[C@]65O)C4)C[C@@H]3O)C[C@@H]2O)O1 (stereo partly drawn) ?
Result: 6.02

Task: Would you mind telling me what Selectivity Ki ratio α1β1/α2β1 value was observed for CC1CN(CC(F)(F)F)CCC(O[C@@H]2[C@H](C)O[C@@H](O[C@@H]3[C@H](C)O[C@@H](O[C@H]4CC[C@@]5(C)C(CCC6C5C[C@H](O)[C@]5(C)[C@@H](C7=CC(=O)OC7)CC[C@]65O)C4)C[C@@H]3O)C[C@@H]2O)O1 (stereo partly drawn) ?
Result: 4.1

Task: Would you mind telling me what Selectivity Ki ratio α1β1/α2β1 value was observed for CC1CN(C(C)C)CCC(O[C@@H]2[C@H](C)O[C@@H](O[C@@H]3[C@H](C)O[C@@H](O[C@H]4CC[C@@]5(C)C(CCC6C5C[C@H](O)[C@]5(C)[C@@H](C7=CC(=O)OC7)CC[C@]65O)C4)C[C@@H]3O)C[C@@H]2O)O1 (stereo partly drawn) ?
Result: 5.1

* * *

Here the recorded Selectivity Ki ratio α1β1/α2β3 is given for each entry.
SUBJECT_OF_TEST: human Na,K-ATPase α2β3FXYD1 (Homo sapiens (Human), UniProt P50993+P54709)
EXPERIMENTAL_PROTOCOL: biochemical
Assay type: biochemical
# print the numeric value only

CC1CN(C2CCCCC2)CCC(O[C@@H]2C(C)O[C@@H](OC3C(C)OC(O[C@H]4CC[C@@]5(C)C(CCC6C5CC(O)[C@]5(C)[C@@H](C7=CC(=O)OC7)CC[C@]65O)C4)C[C@@H]3O)C[C@@H]2O)O1 (stereo in doubt) [DcH]    10.1

Shift focus to the following entry.
Task: Would you mind telling me what Selectivity Ki ratio α1β1/α2β3 value was observed for CC1CN(C2CC2)CCC(O[C@@H]2[C@H](C)O[C@@H](O[C@@H]3[C@H](C)O[C@@H](O[C@H]4CC[C@@]5(C)C(CCC6C5C[C@H](O)[C@]5(C)[C@@H](C7=CC(=O)OC7)CC[C@]65O)C4)C[C@@H]3O)C[C@@H]2O)O1 (some centres unmarked) [DcP] ?
Result: 13.4

* * *

SUBJECT_OF_TEST: human Na,K-ATPase α2β3FXYD1 (Homo sapiens (Human), UniProt P50993+P54709)
EXPERIMENTAL_PROTOCOL: biochemical
Format: biochemical
QUANTITY: selectivity for α2β3 over α1β1 (Ki α1β1:α2β3 ratio)

Observe how each entry below is paired with its result.
CC1CN(CC2CC2)CCC(O[C@@H]2[C@H](C)O[C@@H](O[C@@H]3[C@H](C)O[C@@H](O[C@H]4CC[C@@]5(C)C(CCC6C5C[C@H](O)[C@]5(C)[C@@H](C7=CC(=O)OC7)CC[C@]65O)C4)C[C@@H]3O)C[C@@H]2O)O1 (stereo partly drawn) [DMcP]    22 fold
CC1CN(C2CCCCC2)CCC(O[C@@H]2C(C)O[C@@H](OC3C(C)OC(O[C@H]4CC[C@@]5(C)C(CCC6C5CC(O)[C@]5(C)[C@@H](C7=CC(=O)OC7)CC[C@]65O)C4)C[C@@H]3O)C[C@@H]2O)O1 (stereo in doubt) [DcH]    10-12 fold

Shift focus to the following entry.
Task: Would you mind telling me what selectivity for α2β3 over α1β1 (Ki α1β1:α2β3 ratio) value was observed for CC1CN(CC2CC(C)(C)C2)CCC(O[C@@H]2[C@H](C)O[C@@H](O[C@@H]3[C@H](C)O[C@@H](O[C@H]4CC[C@@]5(C)C(CCC6C5C[C@H](O)[C@]5(C)[C@@H](C7=CC(=O)OC7)CC[C@]65O)C4)C[C@@H]3O)C[C@@H]2O)O1 (stereo partly drawn) [DMDMcB] ?
Result: 10-12 fold

* * *

Here the recorded Ki is given for each entry.
SUBJECT_OF_TEST: UniProtKB P50993
Type: biochemical
PARTICULARS: read-out: Ki in nM ± SEM α2β1

CCCN1CCC(O[C@@H]2[C@H](C)O[C@@H](O[C@@H]3[C@H](C)O[C@@H](O[C@H]4CC[C@@]5(C)C(CCC6C5C[C@H](O)[C@]5(C)[C@@H](C7=CC(=O)OC7)CC[C@]65O)C4)C[C@@H]3O)C[C@@H]2O)OC(C)C1 (stereo partly shown)    18.3 nM

Task: Would you mind telling me what Ki value was observed for CC1CN(C2CCCCC2)CCC(O[C@@H]2C(C)O[C@@H](OC3C(C)OC(O[C@H]4CC[C@@]5(C)C(CCC6C5CC(O)[C@]5(C)[C@@H](C7=CC(=O)OC7)CC[C@]65O)C4)C[C@@H]3O)C[C@@H]2O)O1 (stereo in doubt) ?
Result: 15.2 nM

Task: Would you mind telling me what Ki value was observed for CC1CN(C(C)(C)C)CCC(O[C@@H]2[C@H](C)O[C@@H](O[C@@H]3[C@H](C)O[C@@H](O[C@H]4CC[C@@]5(C)C(CCC6C5C[C@H](O)[C@]5(C)[C@@H](C7=CC(=O)OC7)CC[C@]65O)C4)C[C@@H]3O)C[C@@H]2O)O1 (stereo partly shown) ?
Result: 21.6 nM

Task: Would you mind telling me what Ki value was observed for CC1CN(C2CCCC2)CCC(O[C@@H]2C(C)O[C@@H](OC3C(C)OC(O[C@H]4CC[C@@]5(C)C(CCC6C5CC(O)[C@]5(C)[C@@H](C7=CC(=O)OC7)CC[C@]65O)C4)C[C@@H]3O)C[C@@H]2O)O1 (stereo in doubt) ?
Result: 33.4 nM

* * *

SUBJECT_OF_TEST: human Na,K-ATPase α2β2FXYD1 (Homo sapiens (Human), UniProt P50993)
Format: biochemical
Here the recorded Selectivity Ki ratio α1β1/α2β2 is given for each entry.

Observe how each entry below is paired with its result.
CC1CN(CC(F)(F)F)CCC(O[C@@H]2[C@H](C)O[C@@H](O[C@@H]3[C@H](C)O[C@@H](O[C@H]4CC[C@@]5(C)C(CCC6C5C[C@H](O)[C@]5(C)[C@@H](C7=CC(=O)OC7)CC[C@]65O)C4)C[C@@H]3O)C[C@@H]2O)O1 (stereo partly drawn) [DCF3]    6.5
CC1CN(C(C)(C)C)CCC(O[C@@H]2[C@H](C)O[C@@H](O[C@@H]3[C@H](C)O[C@@H](O[C@H]4CC[C@@]5(C)C(CCC6C5C[C@H](O)[C@]5(C)[C@@H](C7=CC(=O)OC7)CC[C@]65O)C4)C[C@@H]3O)C[C@@H]2O)O1 (stereo partly drawn) [DtB]    7.3
CCCN1CCC(O[C@@H]2[C@H](C)O[C@@H](O[C@@H]3[C@H](C)O[C@@H](O[C@H]4CC[C@@]5(C)C(CCC6C5C[C@H](O)[C@]5(C)[C@@H](C7=CC(=O)OC7)CC[C@]65O)C4)C[C@@H]3O)C[C@@H]2O)OC(C)C1 (stereo partly drawn) [DP]    8.3
CC1CN(CC2CC(C)(C)C2)CCC(O[C@@H]2[C@H](C)O[C@@H](O[C@@H]3[C@H](C)O[C@@H](O[C@H]4CC[C@@]5(C)C(CCC6C5C[C@H](O)[C@]5(C)[C@@H](C7=CC(=O)OC7)CC[C@]65O)C4)C[C@@H]3O)C[C@@H]2O)O1 (stereo partly drawn) [DMDMcB]    6.16

Task: Would you mind telling me what Selectivity Ki ratio α1β1/α2β2 value was observed for CC1CN(C2CCCC2)CCC(O[C@@H]2C(C)O[C@@H](OC3C(C)OC(O[C@H]4CC[C@@]5(C)C(CCC6C5CC(O)[C@]5(C)[C@@H](C7=CC(=O)OC7)CC[C@]65O)C4)C[C@@H]3O)C[C@@H]2O)O1 (stereo in doubt) [DcPe] ?
Result: 4.1
